The origin of these recorded values is PubChem BioAssay.

- runDescription: human hepatoma cell viability loss – ATP luminescence, cytotoxicity control for P. falciparum antimalarial project, primary screen (AID 2303)
- runConditions: HepG2 viability, 24-48 h, at 10 µM, stronger effect = higher value
Note to self: use MET only for inhibition readings below 10%; a reading exactly at 10% still gets NOT MET.

1) CCNc1cc(C(=O)N[C@@H](Cc2ccccc2)[C@H](O)CNCc2cccc(OC)c2)c(OC)c(N2CCCCS2(=O)=O)c1; NOT MET
2) COc1ccc(CCN2CC[C@H](Nc3nc(-c4ccc(F)c(F)c4)nc4ccccc34)C2)cc1S(N)(=O)=O; NOT MET
3) CC(C)(C)c1cc(C(=O)N2CCN(c3ncccc3C(F)(F)F)CC2)n(Cc2ccccc2)n1; MET
4) N[C@@H](Cc1cc(I)c(Oc2ccc(O)c(Cl)c2)c(I)c1)C(=O)O; MET
5) Nc1c(Cl)cc(C(O)CNCCCCCCOCCc2ccc(CO)s2)cc1Cl (stereo not drawn); MET
6) CCc1ccc(C2CCN(CCCCNC(=O)c3ccc(NC(=O)c4ccc(Cl)cc4)cc3)CC2)c(OC(C)=O)c1; NOT MET
7) CCN(CC)CCN(Cc1ccc(-c2ccc(C(F)(F)F)cc2)cc1)C(=O)Cn1c(SCc2ccc(F)cc2)nc(=O)c2sccc21; NOT MET
